This collection of values is drawn from paper PMC6077846.

Below, each of the compounds is paired with its reported logD value.
Assay: Lipophilicity
Assay type: physicochemical
Conditions: 1-octanol/sodium phosphate buffer, pH 7.4
// print number alone

These solved cases illustrate the format of a correct answer.
[[record]]
compound = "CC(C)C(=O)c1cn(CC(=O)COc2ccc(Oc3ccccc3)cc2)c2ccc(C(=O)O)cc12 [[^11C]1]"
observed_measurement = 2.1

[[record]]
compound = "Cc1noc(-c2cn(CC(=O)COc3ccc(Oc4ccccc4)cc3)c3ccc(C(=O)O)cc23)n1 [[^11C]3]"
observed_measurement = 2.07

[[record]]
compound = "CC(=O)c1cn(CC(=O)COc2ccc(Oc3ccc(C(F)(F)F)cc3)cc2)c2ccc(C(=O)O)cc12 [[^11C]2]"
observed_measurement = 2.43


Next item in the queue.
For CCCCCCCCc1ccc(OCC(=O)Cn2cc(-c3nc(C)no3)c3cc(C(=O)O)ccc32)cc1 [[^11C]4] the compound record lists logD as 1.94
